target: PI3Kδ (Homo sapiens); assay: PI3K HTRF assay, PI3K-delta; format: biochemical; settings: read-out: pIC50 PI3Kδ (converted); further: 80 µM ATP
Sequence (O00329 whole entry): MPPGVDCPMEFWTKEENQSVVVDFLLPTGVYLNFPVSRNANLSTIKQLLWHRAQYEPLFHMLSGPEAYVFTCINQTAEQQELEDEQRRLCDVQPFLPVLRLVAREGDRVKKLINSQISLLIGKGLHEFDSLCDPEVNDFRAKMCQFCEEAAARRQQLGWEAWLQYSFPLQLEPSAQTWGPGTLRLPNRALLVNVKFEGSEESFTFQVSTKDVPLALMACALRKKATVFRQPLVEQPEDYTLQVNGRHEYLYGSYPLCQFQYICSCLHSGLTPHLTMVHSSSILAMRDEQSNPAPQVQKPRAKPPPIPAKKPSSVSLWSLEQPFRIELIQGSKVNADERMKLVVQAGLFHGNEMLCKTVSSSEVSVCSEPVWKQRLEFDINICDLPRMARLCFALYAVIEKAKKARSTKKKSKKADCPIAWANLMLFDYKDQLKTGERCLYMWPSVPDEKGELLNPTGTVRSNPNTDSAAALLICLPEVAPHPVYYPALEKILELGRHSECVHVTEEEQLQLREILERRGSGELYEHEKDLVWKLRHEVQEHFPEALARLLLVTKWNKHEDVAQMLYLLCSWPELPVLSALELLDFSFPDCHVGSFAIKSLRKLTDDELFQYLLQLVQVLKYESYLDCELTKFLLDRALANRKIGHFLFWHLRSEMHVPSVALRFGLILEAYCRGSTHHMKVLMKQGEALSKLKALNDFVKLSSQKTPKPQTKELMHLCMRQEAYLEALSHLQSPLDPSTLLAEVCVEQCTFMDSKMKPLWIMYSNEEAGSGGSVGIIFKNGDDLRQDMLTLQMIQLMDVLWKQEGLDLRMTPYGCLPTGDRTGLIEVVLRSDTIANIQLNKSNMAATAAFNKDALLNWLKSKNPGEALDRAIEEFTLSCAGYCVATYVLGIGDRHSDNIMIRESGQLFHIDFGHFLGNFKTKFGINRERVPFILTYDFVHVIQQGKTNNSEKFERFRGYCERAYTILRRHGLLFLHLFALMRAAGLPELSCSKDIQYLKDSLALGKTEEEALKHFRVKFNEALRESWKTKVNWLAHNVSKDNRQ
Sequence (P27986 whole entry partner): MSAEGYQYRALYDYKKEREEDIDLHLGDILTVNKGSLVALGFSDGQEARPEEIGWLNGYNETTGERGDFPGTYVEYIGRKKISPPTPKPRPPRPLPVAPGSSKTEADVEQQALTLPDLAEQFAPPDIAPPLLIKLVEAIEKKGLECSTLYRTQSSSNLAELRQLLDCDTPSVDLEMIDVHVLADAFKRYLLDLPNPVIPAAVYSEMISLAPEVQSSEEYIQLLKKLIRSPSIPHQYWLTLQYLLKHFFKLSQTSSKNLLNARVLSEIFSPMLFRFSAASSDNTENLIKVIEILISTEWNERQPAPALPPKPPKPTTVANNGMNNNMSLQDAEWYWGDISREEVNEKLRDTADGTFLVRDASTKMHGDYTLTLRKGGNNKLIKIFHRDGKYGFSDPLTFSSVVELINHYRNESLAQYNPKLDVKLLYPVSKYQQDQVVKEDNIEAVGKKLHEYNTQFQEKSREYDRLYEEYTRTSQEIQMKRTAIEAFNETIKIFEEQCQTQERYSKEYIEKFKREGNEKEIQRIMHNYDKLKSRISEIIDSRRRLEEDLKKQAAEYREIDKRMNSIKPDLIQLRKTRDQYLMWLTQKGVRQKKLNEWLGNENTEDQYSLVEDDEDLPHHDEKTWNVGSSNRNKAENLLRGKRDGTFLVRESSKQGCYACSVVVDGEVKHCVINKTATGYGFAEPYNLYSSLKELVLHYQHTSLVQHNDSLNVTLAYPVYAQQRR
Give measured IC50 for each item. Keep answers brief.
Numbers only, in nM.

Known IC50 results, listed for orientation:
compound="COc1ncc(-c2cc(-c3ncc(CN4CCN(C(C)C)CC4)o3)c3cn[nH]c3c2)cc1C(=O)O [Example 2]" measure_name=IC50 experimental_value=12.6
compound="COc1ncc(-c2cc(-c3ncc(CN4CCN(C(C)C)CC4)o3)c3cn[nH]c3c2)cc1C(=O)Oc1ccccc1 [Example 8]" measure_name=IC50 experimental_value=6.31
compound="COc1ccc(OC(=O)c2cc(-c3cc(-c4ncc(CN5CCN(C(C)C)CC5)o4)c4cn[nH]c4c3)cnc2OC)cc1 [Example 10]" measure_name=IC50 experimental_value=50.1
compound="COc1ncc(-c2cc(-c3ncc(CN4CCN(C(C)C)CC4)o3)c3cn[nH]c3c2)cc1C(=O)Oc1ccc(C(F)(F)F)cc1 [Example 6]" measure_name=IC50 experimental_value=3.98
compound="COC(=O)c1cc(-c2cc(-c3ncc(CN4CCN(C(C)C)CC4)o3)c3cn[nH]c3c2)cnc1OC.O=CO [Example 1]" measure_name=IC50 experimental_value=39.8
compound="COc1ncc(-c2cc(-c3ncc(CN4CCN(C(C)C)CC4)o3)c3cn[nH]c3c2)cc1C(=O)OCC(F)(F)F [Example 11]" measure_name=IC50 experimental_value=316

Hi! Can you tell me IC50 for each of these compounds?
1. COc1ncc(-c2cc(-c3ncc(CN4CCN(C(C)C)CC4)o3)c3cn[nH]c3c2)cc1C(=O)Oc1ccccc1C(F)(F)F [Example 5]
2. COc1ncc(-c2cc(-c3ncc(CN4CCN(C(C)C)CC4)o3)c3cn[nH]c3c2)cc1C(=O)Oc1ccccc1[N+](=O)[O-] [Example 3]
3. COc1ncc(-c2cc(-c3ncc(CN4CCN(C(C)C)CC4)o3)c3cn[nH]c3c2)cc1C(=O)Oc1ccc(C)cc1C [Example 9]
4. COc1ncc(-c2cc(-c3ncc(CN4CCN(C(C)C)CC4)o3)c3cn[nH]c3c2)cc1C(=O)Oc1ccc([N+](=O)[O-])cc1 [Example 4]

1: 6.31; 2: 5.01; 3: 398; 4: 0.631

###

Give measured IC50 for each item. Keep answers brief.
molecular target: PI3Kα (Homo sapiens); assay: PI3K HTRF assay, PI3K-alpha; type: biochemical; conditions: read-out: pIC50 PI3Kα (converted); further: 250 µM ATP
Sequence (P42336 whole entry, species assumed): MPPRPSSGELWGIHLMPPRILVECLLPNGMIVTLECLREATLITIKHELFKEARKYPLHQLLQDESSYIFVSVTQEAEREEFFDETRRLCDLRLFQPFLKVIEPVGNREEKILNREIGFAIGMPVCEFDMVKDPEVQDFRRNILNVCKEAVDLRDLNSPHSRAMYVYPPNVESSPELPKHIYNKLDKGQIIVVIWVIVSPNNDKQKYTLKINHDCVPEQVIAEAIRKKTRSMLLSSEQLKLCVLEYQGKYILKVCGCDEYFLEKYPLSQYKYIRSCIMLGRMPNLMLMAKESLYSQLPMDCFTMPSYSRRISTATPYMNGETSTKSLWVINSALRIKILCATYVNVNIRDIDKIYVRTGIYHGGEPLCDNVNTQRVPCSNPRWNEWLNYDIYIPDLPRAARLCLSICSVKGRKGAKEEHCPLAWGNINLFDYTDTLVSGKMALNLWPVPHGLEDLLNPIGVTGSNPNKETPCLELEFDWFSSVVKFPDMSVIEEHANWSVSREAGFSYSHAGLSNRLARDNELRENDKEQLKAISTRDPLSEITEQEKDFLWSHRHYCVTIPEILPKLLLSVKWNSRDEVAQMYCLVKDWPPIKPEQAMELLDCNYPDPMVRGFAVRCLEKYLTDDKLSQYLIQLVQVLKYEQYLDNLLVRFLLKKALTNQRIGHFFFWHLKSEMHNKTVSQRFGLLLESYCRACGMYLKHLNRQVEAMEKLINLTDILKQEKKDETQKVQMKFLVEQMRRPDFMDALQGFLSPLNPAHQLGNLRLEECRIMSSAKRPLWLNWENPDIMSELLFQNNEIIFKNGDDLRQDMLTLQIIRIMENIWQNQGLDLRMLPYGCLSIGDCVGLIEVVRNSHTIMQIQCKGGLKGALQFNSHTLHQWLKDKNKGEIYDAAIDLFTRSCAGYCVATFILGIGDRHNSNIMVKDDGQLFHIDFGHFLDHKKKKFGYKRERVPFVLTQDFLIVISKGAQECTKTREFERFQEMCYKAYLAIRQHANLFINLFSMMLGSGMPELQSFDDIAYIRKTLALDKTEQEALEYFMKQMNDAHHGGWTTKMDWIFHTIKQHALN
Sequence (P27986 whole entry partner, species assumed): as the sequence (P27986 whole entry partner) above
Value and unit, in that order.

compound_structure=COc1ncc(-c2cc(-c3ncc(CN4CCN(C(C)C)CC4)o3)c3cn[nH]c3c2)cc1C(=O)Oc1ccccc1 measure_name=IC50 experimental_value="2.51 µM"

Hi! Can you tell me IC50 for each of these compounds?
1. COc1ncc(-c2cc(-c3ncc(CN4CCN(C(C)C)CC4)o3)c3cn[nH]c3c2)cc1C(=O)O
2. COc1ncc(-c2cc(-c3ncc(CN4CCN(C(C)C)CC4)o3)c3cn[nH]c3c2)cc1C(=O)OCC(F)(F)F
3. COc1ncc(-c2cc(-c3ncc(CN4CCN(C(C)C)CC4)o3)c3cn[nH]c3c2)cc1C(=O)Oc1ccccc1[N+](=O)[O-]

12.6 µM
15.8 µM
0.0794 µM
